target: α1A (rabbit urethra) (Oryctolagus cuniculus); construct: tested for α1A functional activity using rabbit urethra; from tissue; host or cells: rabbit urethra (female New Zealand white rabbits); experiment: Agonist tissue response, contraction of rabbit urethra; format: biochemical; conditions: values without asterisk, read-out: Agonist Tissue Response (pD2) α1A (rab ureth) (converted)
endpoint: EC50 (µM)

CC(C)[C@H]1CC[C@H](C)C[C@@H]1OC(=O)Nc1cccc2c1CCCC2c1c[nH]cn1 (some centres unmarked) [Example 123] | 6.17
O=S(=O)(Cc1ccccc1)Nc1cccc2c1CCCC2c1cnc[nH]1 (centres unmarked) [Example 67] | 107
COCCN(CCOC)C(=O)Nc1cccc2c1CCCC2c1c[nH]cn1 (centres unmarked) [Example 116] | 9.33

a: CCCN(CCC)C(=O)Nc1cccc2c1CCCC2c1c[nH]cn1 (centres unmarked) [Example 112]
b: CCN(C(=O)Nc1cccc2c1CCCC2c1c[nH]cn1)C1CCCCC1 (centres unmarked) [Example 113]
Prompt: // pick min by EC50: a , b Record your answer as the label of the chosen record.
Completion: b

====

Target: α1d (rat receptor expressed in mouse fibroblasts) (Rattus norvegicus, UniProt P23944)
Construct: expressed in transfected cells; host or cells: mouse fibroblasts
Sequence (P23944 1-561): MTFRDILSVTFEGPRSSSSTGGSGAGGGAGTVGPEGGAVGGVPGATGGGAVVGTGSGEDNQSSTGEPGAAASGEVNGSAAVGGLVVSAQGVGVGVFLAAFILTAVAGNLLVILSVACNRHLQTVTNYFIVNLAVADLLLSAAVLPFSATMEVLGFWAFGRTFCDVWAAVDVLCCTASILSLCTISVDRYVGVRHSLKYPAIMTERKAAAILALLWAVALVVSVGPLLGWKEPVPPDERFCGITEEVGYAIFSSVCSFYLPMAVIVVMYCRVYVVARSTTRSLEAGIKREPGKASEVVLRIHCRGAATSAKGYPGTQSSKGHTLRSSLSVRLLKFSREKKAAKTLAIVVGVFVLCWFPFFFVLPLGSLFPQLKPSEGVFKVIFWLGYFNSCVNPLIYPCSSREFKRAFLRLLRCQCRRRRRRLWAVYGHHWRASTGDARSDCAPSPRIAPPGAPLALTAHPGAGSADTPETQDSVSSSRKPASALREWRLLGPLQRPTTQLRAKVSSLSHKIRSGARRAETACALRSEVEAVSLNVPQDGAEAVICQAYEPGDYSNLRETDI
Test: Radioligand binding, [3H]-prazosin, α1d
endpoint: Ki (nM)
Just the number in nM, nothing appended.

Field: example entries. Status: answers known.
C=C(c1cccc(NS(=O)(=O)CC(F)(F)F)c1)c1c[nH]cn1.O=C(O)/C=C\C(=O)O [Example 91, Maleate] | 10000
CC(C)(OC(=O)Nc1cccc2c1CCCC2c1c[nH]cn1)C(Cl)(Cl)Cl (stereo not shown) | 1270
O=C(Nc1cccc2c1CCCC2c1c[nH]cn1)N1CCOCC1 (stereo not shown) | 10000
CCS(=O)(=O)Nc1cc(C2CCCCC2)cc2c1CCCC2c1c[nH]cn1 (stereo not shown) | 449
Cc1ccc(OC(=O)Nc2cccc3c2CCCC3c2c[nH]cn2)cc1 (stereo not shown) | 787
O=C(Nc1cccc2c1CCCC2c1c[nH]cn1)OCC(Cl)(Cl)Cl (stereo not shown) | 963
CCS(=O)(=O)Nc1cccc(C(=C2CCCCC2)c2c[nH]cn2)c1 | 2.46
CCS(=O)(=O)Nc1cccc2c1COC2c1c[nH]cn1.O=C(O)/C=C\C(=O)O (stereo not shown) [Example 87, Maleate] | 10000
CCS(=O)(=O)Nc1cc(Cl)cc2c1CCCC2c1c[nH]cn1 (stereo not shown) | 367

Next:
Prompt: Tell us which Ki value is on record for COC(=O)Nc1cccc2c1CCCC2c1c[nH]cn1 (stereo not shown)
Completion: 3040

====

biological target: α1A (rabbit urethra) (Oryctolagus cuniculus, UniProt O02824); construct: tested for α1A functional activity using rabbit urethra; from tissue; host or cells: rabbit urethra (female New Zealand white rabbits); experiment: Agonist tissue response, contraction of rabbit urethra; type: biochemical; conditions: values without asterisk, read-out: Agonist Tissue Response (pD2) α1A (rab ureth) (converted)
In this section we review reported EC50 values for a set of molecules.
Dear colleague, please return just the value in µM, with no unit written.

// worked examples, EC50 included
CC1CC(C)CN(C(=O)Nc2cccc3c2CCCC3c2c[nH]cn2)C1 (stereo not drawn) [Example 115] | 5.5
C=C(c1cccc(NS(C)(=O)=O)c1)c1c[nH]cn1 [Example 92] | 3.24

Moving on to the next molecule.
Prompt: Output measured EC50 for this item: O=S(=O)(C=Cc1ccccc1)Nc1cccc2c1CCCC2c1cnc[nH]1 (stereo not drawn) [Example 70]
Completion: 81.3

====

Reported melting point values for the following compounds.

Answered examples (5):
Cc1nc(C2CCCc3c2ccc(O)c3NS(C)(=O)=O)c[nH]1.Cl (stereo not shown) | 233 to 235 °C
CS(=O)(=O)Nc1ccc(Cl)c2c1CCCC2c1c[nH]cn1.O=C(O)/C=C\C(=O)O (stereo not shown) | 175 to 178 °C
CCS(=O)(=O)Nc1cccc2c1CCCCC2c1c[nH]cn1.O=C(O)/C=C\C(=O)O (stereo not shown) | 155 to 156 °C
CCS(=O)(=O)Nc1cc(C2CCCCC2)cc2c1CCCC2c1c[nH]cn1 (stereo not shown) | 207 to 209 °C
CCS(=O)(=O)Nc1cc(Cc2c[nH]cn2)ccc1C | 140 to 152 °C

Prompt: Supply melting point value. Item: CCS(=O)(=O)Nc1c(C)ccc2c1CCCC2c1c[nH]cn1 (stereo not shown)
Completion: 196 to 199 °C

Prompt: State its melting point for this compound: `CCS(=O)(=O)Nc1cc(Cl)cc(Cc2c[nH]cn2)c1Cl`
Completion: 182 to 184 °C

Prompt: Please look at this compound and report its melting point: `Cc1cc(Cc2c[nH]cn2)c(C)c(NS(C)(=O)=O)c1`
Completion: 197 to 199 °C

Prompt: Provide only the value of recorded melting point for `CS(=O)(=O)Nc1cccc2c1CCC[C@H]2c1c[nH]cn1`
Completion: 118 to 123 °C

Prompt: Item CS(=O)(=O)Nc1cc(F)cc2c1OCCC2c1c[nH]cn1.O=C(O)/C=C\C(=O)O (stereo not shown) : provide melting point
Completion: 187 to 190 °C

====

Counter-ions that a name gives are not always drawn.
Entries and their measured melting point follow.

CCC(O)(c1cccc(NS(=O)(=O)CC)c1)c1c[nH]cn1 (stereo not drawn) | 120 to 124 °C

Prompt: Indicate the recorded melting point value for this compound: `CS(=O)(=O)Nc1cccc2c1CCC=C2c1c[nH]cn1.O=C(O)/C=C\C(=O)O`
Completion: 161 to 165 °C

Prompt: Report melting point, nothing else, for this compound: CS(=O)(=O)Nc1c(O)ccc2c1CCCC2c1c[nH]cn1.Cl (stereo not drawn)
Completion: 135 to 137 °C

Prompt: Specify measured melting point for C=C(c1cccc(NS(C)(=O)=O)c1)c1c[nH]cn1 (as salt: maleic acid salt) .
Completion: 167 to 170 °C

====

test system: anesthetized dogs; test: Mean arterial pressure (MAP) in anesthetized dogs; assay type: in vivo, dog; details: iv dose causing a maximum increase in MAP of 20 mm Hg, anesthetized female Beagle dogs
endpoint: Mean MAP ED20 (nmol/kg)

CN(c1cccc2c1CCCC2c1c[nH]cn1)S(C)(=O)=O.O=C(O)/C=C\C(=O)O (stereo not shown) | 225

1: CC1CC(C)CN(C(=O)Nc2cccc3c2CCCC3c2c[nH]cn2)C1 (stereo not shown)
2: CCS(=O)(=O)Nc1cccc2c1OCCC2c1c[nH]cn1 (single isomer, unassigned; (+))
3: CCN(C(=O)Nc1cccc2c1CCCC2c1c[nH]cn1)C1CCCCC1 (stereo not shown)
4: O=C(Nc1cccc2c1CCCC2c1c[nH]cn1)N1CCCCC1 (stereo not shown)
Prompt: Ordering: ascending Mean MAP ED20. Respond with the label ranking, as requested.
Completion: 2, 1, 3, 4
(2: 109.1 nmol/kg, 1: 500 nmol/kg, 3: 733.7 nmol/kg, 4: 1074.07 nmol/kg)

====

Target: α1A (rabbit urethra) (Oryctolagus cuniculus, UniProt O02824)
Construct: tested for α1A functional activity using rabbit urethra; from tissue; host or cells: rabbit urethra (female New Zealand white rabbits)
Sequence (O02824 1-466): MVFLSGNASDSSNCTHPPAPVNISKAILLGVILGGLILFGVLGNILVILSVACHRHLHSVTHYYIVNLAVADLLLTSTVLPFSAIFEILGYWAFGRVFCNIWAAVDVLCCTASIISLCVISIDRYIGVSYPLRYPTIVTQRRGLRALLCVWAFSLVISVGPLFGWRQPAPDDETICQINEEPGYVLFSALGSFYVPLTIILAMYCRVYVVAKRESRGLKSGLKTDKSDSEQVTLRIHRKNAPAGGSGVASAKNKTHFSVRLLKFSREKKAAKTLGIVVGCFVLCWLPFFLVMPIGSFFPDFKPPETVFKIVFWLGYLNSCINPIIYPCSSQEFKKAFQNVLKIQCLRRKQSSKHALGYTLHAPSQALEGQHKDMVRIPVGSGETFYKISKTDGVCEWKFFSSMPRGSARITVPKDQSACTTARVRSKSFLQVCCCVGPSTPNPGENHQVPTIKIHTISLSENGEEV
Assay: Agonist tissue response, contraction of rabbit urethra
Type: biochemical
Conditions: values without asterisk, read-out: Agonist Tissue Response (pD2) α1A (rab ureth) (converted)
endpoint: EC50 (µM)

Worked examples follow.
CS(=O)(=O)Nc1cc(F)cc2c1OCCC2c1c[nH]cn1.O=C(O)/C=C\C(=O)O (centres unmarked) [Example 90, Maleate] | 0.49
O=C(Nc1cccc2c1CCCC2c1c[nH]cn1)N1CCOCC1 (centres unmarked) [Example 117] | 5.37
O=C(Nc1cccc2c1CCCC2c1c[nH]cn1)OCC(Cl)(Cl)Cl (centres unmarked) [Example 121] | 3.72

a: O=C(Nc1cccc2c1CCCC2c1c[nH]cn1)N1CCCCC1 (centres unmarked) [Example 114]
b: CCS(=O)(=O)Nc1cccc2c1OCCC2c1c[nH]cn1 (single isomer, unassigned; (+)) [Example 95]
Prompt: Parameter check: reported EC50 is higher for which label, a or b ? Answer with the label corresponding to your selection.
Completion: a
(a: 9.12 µM, b: 1.38 µM)
